// provenance: patent US4828979A

Test system: human β-globin gene
assay.info: Detection of single-copy gene sequence in Southern blot of Eco RI digested human DNA
assay.conditions: NBT/BCIP dye system; probe 100 ng/ml, hybridization 16-24 hours
Exercise: state measured time of staining within which single copy β-globin gene fragment at 5.2 Kb was observed for each of the compounds provided.

*Q* # lookup: time of staining within which single copy β-globin gene fragment at 5.2 Kb was observed of O=C(CCCCCNC(=O)CCCC[C@@H]1SC[C@@H]2NC(=O)N[C@@H]21)NCCCCCCNc1ncnc2c1ncn2[C@H]1C[C@H](O)[C@@H](COP(=O)(O)OP(=O)(O)OP(=O)(O)O)O1 [Biotin-14-dATP]
*A* ≤ 3 h

*Q* Fill in the blank: the reported time of staining within which single copy β-globin gene fragment at 5.2 Kb was observed of O=C(CCCC[C@@H]1SC[C@@H]2NC(=O)N[C@@H]21)NCCCCCCNc1ncnc2c1ncn2[C@H]1C[C@H](O)[C@@H](COP(=O)(O)OP(=O)(O)OP(=O)(O)O)O1 [Biotin-7-dATP] is ____.
*A* ≤ 3 h

*Q* // returns reported time of staining within which single copy β-globin gene fragment at 5.2 Kb was observed for input O=C(CCCC[C@@H]1SC[C@@H]2NC(=O)N[C@@H]21)NCCNc1ncnc2c1ncn2[C@H]1C[C@H](O)[C@@H](COP(=O)(O)OP(=O)(O)OP(=O)(O)O)O1 [Biotin-3-dATP]
*A* ≤ 3 h

*Q* Which time of staining within which single copy β-globin gene fragment at 5.2 Kb was observed reading was recorded for the compound O=C(CCCC[C@@H]1SC[C@@H]2NC(=O)N[C@@H]21)NCCCCCC(=O)NCCNc1ncnc2c1ncn2[C@H]1C[C@H](O)[C@@H](COP(=O)(O)OP(=O)(O)OP(=O)(O)O)O1 [Biotin-10-dATP] ?
*A* ≤ 3 h

*Q* Entry under review: O=C(CCCC[C@@H]1SC[C@@H]2NC(=O)N[C@@H]21)NCCCCCC(=O)NCCNc1ccn([C@H]2C[C@H](O)[C@@H](COP(=O)(O)OP(=O)(O)OP(=O)(O)O)O2)c(=O)n1 [Biotin-10-dCTP] . Reported time of staining within which single copy β-globin gene fragment at 5.2 Kb was observed?
*A* ≤ 3 h

*Q* Quick one: time of staining within which single copy β-globin gene fragment at 5.2 Kb was observed of O=C(CCCC[C@@H]1SC[C@@H]2NC(=O)N[C@@H]21)NCCCCCCNc1ccn([C@H]2C[C@H](O)[C@@H](COP(=O)(O)OP(=O)(O)OP(=O)(O)O)O2)c(=O)n1 [Biotin-7-dCTP] ?
*A* ≤ 3 h
